# credit: patent US7138361B2

- System: corn (Zea mays)
- measurementProtocol: Test B postemergence
- Type: in vivo
- cond: Rate 500 g/ha, scale 0 to 100, 0 is no effect, 100 is complete control, 13 to 15 days
observable: Plant response rating, Corn
Just the number, please.

Input line: # lookup: Plant response rating, Corn of CCCOc1cc(N2CCC(n3ccc(C(C)(C)C)n3)C2=O)ccc1C (stereo not drawn)
Output line: 0

Input line: # lookup: Plant response rating, Corn of CC(C)(C)c1ccn(C2OCN(c3cccc(OC(F)(F)F)c3)C2=O)n1 (stereo not drawn)
Output line: 0

Input line: # lookup: Plant response rating, Corn of Cc1ccc(N2CCC(n3ccc(C(C)(C)C)n3)C2=O)cc1Cl (stereo not drawn)
Output line: 0

Input line: # lookup: Plant response rating, Corn of CCC(C)Oc1cccc(N2CCC(n3ccc(C(C)(C)C)n3)C2=O)c1 (stereo not drawn)
Output line: 0

Input line: # lookup: Plant response rating, Corn of CCCCC(CCCC)c1ccn(C2SCN(c3cccc(C(F)(F)F)c3)C2=O)n1 (stereo not drawn)
Output line: 20

Input line: # lookup: Plant response rating, Corn of CCCCC(C)c1ccn(C2SCN(c3cccc(C(F)(F)F)c3)C2=O)n1 (stereo not drawn)
Output line: 0

Input line: # lookup: Plant response rating, Corn of Cc1c(F)cc(N2CCC(n3ccc(C(C)(C)C)n3)C2=O)cc1Br (stereo not drawn)
Output line: 0

Input line: # lookup: Plant response rating, Corn of CCC(C)c1ccn(C2SCN(c3cccc(OC(F)(F)F)c3)C2=O)n1 (stereo not drawn) [Compound 40]
Output line: 50

Input line: # lookup: Plant response rating, Corn of O=C1C(n2ccc(C3CCCCC3)n2)SCN1c1cccc(OC(F)(F)F)c1 (stereo not drawn)
Output line: 0
